Target: T1, Human CD24 (human, UniProt P25063 27-59, limits assumed)
T1 chain (looked up): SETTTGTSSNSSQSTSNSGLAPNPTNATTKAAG
Experiment: SPR affinity ranking, 1:1 binding, analyte conc. 19.71 nM
measured_endpoint: pKd
For clarity, pKd is expressed as the negative log10 of concentration in mol/L.

Below, each entry is followed by its recorded pKd result.
binder: Antibody No 13, lead clone of 4451H (HC T59Y; LC L33G) (antibody, V domains shown) VH: QVQLVQSGAEVKKPGASVKVSCKASGYDFTGYHMNWVRQAPGQGLEWMGEINPITSDKYFNQKFKSRVTMTRDTSISTAYMELSRLRSDDTAVYYCARRDYGTSLDYWGQGTTVTVSS VL: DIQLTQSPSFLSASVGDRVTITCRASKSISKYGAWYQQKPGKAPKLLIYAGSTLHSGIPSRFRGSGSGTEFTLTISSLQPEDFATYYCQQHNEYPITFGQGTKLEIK
experimental_value: 8.01

binder: Antibody No 12, lead clone of 4451H (HC T59Y; LC S30K) (antibody, V domains shown) VH: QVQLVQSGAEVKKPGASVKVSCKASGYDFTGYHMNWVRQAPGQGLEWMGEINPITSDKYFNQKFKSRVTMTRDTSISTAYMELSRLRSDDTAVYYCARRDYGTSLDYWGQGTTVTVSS VL: DIQLTQSPSFLSASVGDRVTITCRASKSIKKYLAWYQQKPGKAPKLLIYAGSTLHSGIPSRFRGSGSGTEFTLTISSLQPEDFATYYCQQHNEYPITFGQGTKLEIK
experimental_value: 7.95

Reported pKd ( Antibody No 7, lead clone of 4451H (HC N35G; LC T97I) (antibody, V domains shown) VH: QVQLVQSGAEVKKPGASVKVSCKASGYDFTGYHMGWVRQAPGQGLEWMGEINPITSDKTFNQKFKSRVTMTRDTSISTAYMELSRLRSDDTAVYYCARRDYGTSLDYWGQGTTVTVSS VL: DIQLTQSPSFLSASVGDRVTITCRASKSISKYLAWYQQKPGKAPKLLIYAGSTLHSGIPSRFRGSGSGTEFTLTISSLQPEDFATYYCQQHNEYPIIFGQGTKLEIK ) = 7.77

Item: Antibody No 11, lead clone of 4451H (HC T59Y; LC K27A) (antibody, V domains shown) VH: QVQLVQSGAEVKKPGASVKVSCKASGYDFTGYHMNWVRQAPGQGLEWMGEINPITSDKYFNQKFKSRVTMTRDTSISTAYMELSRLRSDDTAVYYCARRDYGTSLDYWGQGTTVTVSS VL: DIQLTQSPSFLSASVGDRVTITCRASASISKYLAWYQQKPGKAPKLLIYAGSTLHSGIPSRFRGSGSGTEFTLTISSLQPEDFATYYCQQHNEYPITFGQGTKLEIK | pKd: 7.85

Antibody No 10, lead clone of 4451H (HC T59Y; LC L33G, T97I) (antibody, V domains shown) VH: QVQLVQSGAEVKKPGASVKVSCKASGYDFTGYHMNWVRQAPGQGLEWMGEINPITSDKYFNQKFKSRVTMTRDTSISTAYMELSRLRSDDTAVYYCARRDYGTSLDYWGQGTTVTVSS VL: DIQLTQSPSFLSASVGDRVTITCRASKSISKYGAWYQQKPGKAPKLLIYAGSTLHSGIPSRFRGSGSGTEFTLTISSLQPEDFATYYCQQHNEYPIIFGQGTKLEIK has a reported pKd of 8.06
